assay: chemical genetic growth profiling, strain panel (AID 1159580);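 note: tested at 20 µM; growth read once vehicle control cultures reached saturation at 30 °C; 1 = growth at the plate median or of vehicle wells; lower values mean less growth of the strain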; conditions: S. cerevisiae deletion strains, growth OD, locus YOR316C, strain cot1, active compounds read low
Screen size: about 5,500 compounds; about 2,000 (36%) were called active. Inconclusive results (about 18%) are left out. The list shows a part of the results.
Listed compounds paired with reported normalized growth
readoutType: normalized growth

compound | valueReported
COc1cc(/C=C/C(=O)O)cc(OC)c1OC | 1.02
CC(=O)N[C@@H]1[C@@H](C(O)[C@H](O)CO)O[C@](O)(C(=O)O)C[C@@H]1O (stereo partly drawn) | 1.01
COc1ccc(/C=C/C(=O)O)cc1OC | 1.01

###

test: chemical genetic growth profiling, strain panel (AID 1159580);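 note: tested at 20 µM; growth read once vehicle control cultures reached saturation at 30 °C; 1 = growth at the plate median or of vehicle wells; lower values mean less growth of the strain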; conditions: S. cerevisiae deletion strains, growth OD, locus YJR075W, strain HOC1, active compounds read low
The whole screen tested about 5,500 compounds, of which about 2,000 (36%) were called active. Not shown: some 18% with an inconclusive outcome. The list shows a part of the results.

compound | normalized growth
CC(C)(C)OC(=O)N1CCN(Cc2ccccc2)CC1 | 1
COc1ccc(-c2cc(C(F)F)nn2-c2ccc(S(N)(=O)=O)cc2)cc1F | 1.01
c1ccc2[nH]c(-c3cscn3)nc2c1 | 0.979
COc1ccccc1-c1cc(=O)c2c(OC)cccc2o1 | 0.987
CN(C)CCCO[C@@H]1[C@H]2OC(C)(C)O[C@H]2O[C@@H]1C(O)CO (stereo partly specified) | 1.01
CC/C(=N/Oc1ccc(C(F)(F)F)cn1)c1ccc(-c2ccccc2F)cc1 | 0.991
CN(C)c1ccc(/C=N\NC(=O)CCc2ccc(O)cc2)c(Cl)c1 | 1.01
C=CCN1CC[C@]23c4c5ccc(O)c4OC2C(=O)CC[C@@]3(O)[C@H]1C5 (stereo partly specified) | 1
CCOc1ccc2c(c1)C(C)=CC(C)(C)N2 | 0.975
CCCCCCCC1CC/C(=C\c2ccc(/C=C3\CCC(CCCCCCC)C3=O)cc2)C1=O (stereo unspecified) | 1.04
CN=C1CN(O)C(c2ccccc2)=c2cc(Cl)ccc2=N1 | 0.988
CC(C)(O)C#Cc1ccc(/C=N\O)cc1 | 0.992
C=CCN1CC[C@]23c4c5ccc(O)c4O[C@@H]2/C(=N\N=C2\CC[C@@]4(O)C6Cc7ccc(O)c8c7[C@@]4(CCN6CC=C)[C@@H]2O8)CC[C@@]3(O)C1C5 | 1
CC(C)c1nc2ccccc2[nH]1 | 1.02
O=C1c2cccc3c(SCCO)ccc(c23)C(=O)N1CCc1ccccn1 | 0.984
O=C1CN(/N=C\c2ccc([N+](=O)[O-])o2)C(=O)N1 | 0.986
O=C1CNC(=S)N1CCc1ccccn1 | 1.01
O=C(O)c1cc(C(F)(F)F)ccc1F | 1
COc1ccc(CN(Cc2ccc(OC)cc2)C(=O)c2cccs2)cc1 | 0.976
O=c1[nH]c(-c2cc(Br)cs2)nc2ccc(Cl)cc12 | 1.06
CN(C)CCCO[C@H]1[C@@H](C(O)CO)OC2OC(C)(C)O[C@@H]21 (stereo partly specified) | 0.981
CCOC(=O)c1c(-c2ccc(F)cc2)csc1N | 0.86
N.N.N.N.N.N.N.N.N.N.N.N.N.N.O.O.[Ru+4].[Ru+5].[Ru+5] | 0.115
CCOC(=O)CCc1cc(N=Cc2cc(Cl)cc(Cl)c2O)c(O)c(N=Cc2cc(Cl)cc(Cl)c2O)c1 | 0.245
COc1cccc(-c2cc(=O)c3ccccc3o2)c1N | 0.992
OCC(S)CS (stereo unspecified) | 0.974

###

test: chemical genetic growth profiling, strain panel (AID 1159580);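 note: tested at 20 µM; growth read once vehicle control cultures reached saturation at 30 °C; 1 = growth at the plate median or of vehicle wells; lower values mean less growth of the strain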; settings: S. cerevisiae deletion strains, growth OD, locus YDL040C, strain nat1, active compounds read low
The whole screen tested about 5,500 compounds, of which about 2,000 (36%) were called active. About 18% were inconclusive and are not listed. The list shows a part of the results.
readoutType: normalized growth

compound | valueReported
C=CC1=C(C)/C(=C/c2[nH]c(Cc3[nH]c(/C=C4\NC(=O)C(C)=C4C=C)c(C)c3CCC(=O)O)c(CCC(=O)O)c2C)NC1=O | 0.979
CC12CCC(CC1)C(C)(C)O2 | 0.997
CCOC(=O)CCCCCCCCCCCCC1C=CCC1 (configuration not stated) | 0.974
COc1ccc(-c2cc(C(F)F)nn2-c2ccc(S(N)(=O)=O)cc2)cc1F | 1.01
CCCNC(C)C(=O)Nc1ccccc1C (configuration not stated) | 1.01
CCCc1cc(OC)c2c(c1)OCO2 | 0.978
CC(Cc1ccc(O)c(O)c1)(NN)C(=O)O (configuration not stated) | 1
Nc1nc(N)c2nc(CNc3ccc(C(=O)NC(CCC(=O)O)C(=O)O)cc3)cnc2n1 (configuration not stated) | 1
O=C(O)CCCCC1SCC2NC(=O)NC21 (configuration not stated) | 1
Nc1nc2ncc(CNc3ccc(C(=O)N[C@@H](CCC(=O)O)C(=O)O)cc3)nc2c(=O)[nH]1 | 0.995
CC1(C)CC2C1CCC1(C)OC2(C)CCC1O (configuration not stated) | 1.01
CS(=O)(=O)OCCCCOS(C)(=O)=O | 1
COC(=O)[C@H]1[C@H]2C[C@@H]3c4[nH]c5cc(OC)ccc5c4CCN3C[C@H]2C[C@@H](OC(=O)c2cc(OC)c(OC)c(OC)c2)[C@@H]1OC | 0.992
COS(C)(=O)=O | 0.993
CN(Cc1cc(Br)cc(Br)c1N)C1CCCCC1 | 1.03
CC[C@]1(O)CC2CN(CCc3c([nH]c4ccccc34)[C@@](C(=O)OC)(c3cc4c(cc3OC)N(C=O)[C@H]3[C@@](O)(C(=O)OC)[C@H](OC(C)=O)[C@]5(CC)C=CCN6CC[C@]43[C@@H]65)C2)C1 (some centres not stated) | 0.988
O=C1O[C@@H](CO)[C@H](O)[C@@H](O)[C@@H]1O | 1.03
C=CCc1cc(OC)c2c(c1OC)OCO2 | 0.924
COc1ccc(CN(CCN(C)C)c2ncccn2)cc1 | 1.02
CC[C@]12CCCN3CCc4c(n(c5ccccc45)C(=O)C1)[C@@H]32 | 1
O=C(O)c1cc(=O)c2c(OCC(O)COc3cccc4oc(C(=O)O)cc(=O)c34)cccc2o1 | 0.964
CC1(C)O[C@@H]2[C@@H](CO[C@@]3(COS(N)(=O)=O)OC(C)(C)O[C@@H]23)O1 | 0.997

###

experiment: chemical genetic growth profiling, strain panel (AID 1159580);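 note: tested at 20 µM; growth read once vehicle control cultures reached saturation at 30 °C; 1 = growth at the plate median or of vehicle wells; lower values mean less growth of the strain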; conditions: S. cerevisiae deletion strains, growth OD, locus YBR009C, strain hhf1
In all, about 5,500 compounds went through this assay and about 2,000 (36%) were called active. About 18% were inconclusive and are not listed. Cut-off read from the data, not from the text of the source: active = normalized growth mostly below about 0.91 (no sharp cut-off); inconclusive = no clear call, values can overlap the other calls; inactive = mostly above about 0.92. The list shows a part of the results.
Outcomes: active, inactive

compound | categoryLabel
Cc1ccc(C(C)C)cc2c(C)ccc1-2 | inactive
CC1(C)C2CC(=O)O[C@@]3(C)C4=CC(=O)O[C@@H](c5ccoc5)[C@]4(C)CCC3[C@@]2(C)C=C[C@H]1O (stereo partly specified) | inactive
CC1=C(/C=C/C(C)=C/C=C/C(C)=C/C=C/C=C(C)/C=C/C=C(C)/C=C/C2=C(C)CCCC2(C)C)C(C)(C)CCC1 | active
c1cc2c(cc1[C@H]1OC[C@H]3[C@@H]1CO[C@H]3c1ccc3c(c1)OCO3)OCO2 | active
CC12CCC(CC1)C(C)(C)O2 | inactive
Cc1cccc(CN2CCN(C(c3ccccc3)c3ccc(Cl)cc3)CC2)c1 (stereo unspecified) | active
Nc1nc2c(c(=O)[nH]1)N(C=O)C(CNc1ccc(C(=O)N[C@@H](CCC(=O)O)C(=O)O)cc1)CN2 (stereo partly specified) | inactive
C[C@@H]1C[C@@H]([C@H](O)CC2CC(=O)NC(=O)C2)C(=O)[C@@H](C)C1 | active
CC1(C)O[C@@H]2[C@@H](CO[C@@]3(COS(N)(=O)=O)OC(C)(C)O[C@@H]23)O1 | inactive
CCCNC(C)C(=O)Nc1ccccc1C (stereo unspecified) | inactive
Nc1c(Br)cc(Br)cc1CNC1CCC(O)CC1 (stereo unspecified) | inactive
CC1=C(/C=C/C(C)=C/C=C/C(C)=C\C(=O)O)C(C)(C)CCC1 | inactive
CC1=C(/C=C/C(C)=C/C=C/C(C)=C/C(=O)O)C(C)(C)CCC1 | inactive
C[C@H](COc1ccccc1)N[C@H](C)[C@H](O)c1ccc(O)cc1 | inactive
CN(Cc1cnc2nc(N)nc(N)c2n1)c1ccc(C(=O)NC(CCC(=O)O)C(=O)O)cc1 (stereo unspecified) | active
Nc1nc(N)c2nc(CNc3ccc(C(=O)NC(CCC(=O)O)C(=O)O)cc3)cnc2n1 (stereo unspecified) | inactive
CN(Cc1cc(Br)cc(Br)c1N)C1CCCCC1 | inactive
Nc1nc2ncc(CNc3ccc(C(=O)N[C@@H](CCC(=O)O)C(=O)O)cc3)nc2c(=O)[nH]1 | inactive
C#C[C@]1(O)CCC2C3CCc4cc(OC)ccc4C3CC[C@@]21C (stereo partly specified) | inactive
COc1ccc(/C=C/c2cc(O)cc(O)c2)cc1 | inactive
C[C@]12CCC3c4ccc(OS(=O)(=O)O)cc4CCC3C1CCC2=O (stereo partly specified) | inactive

Reference source: PubChem BioAssay AID1159580
